Target: Lytic switch protein BZLF1 (Epstein-Barr virus (strain B95-8)) (UniProt P03206)
Sequence (P03206 whole entry, looked up): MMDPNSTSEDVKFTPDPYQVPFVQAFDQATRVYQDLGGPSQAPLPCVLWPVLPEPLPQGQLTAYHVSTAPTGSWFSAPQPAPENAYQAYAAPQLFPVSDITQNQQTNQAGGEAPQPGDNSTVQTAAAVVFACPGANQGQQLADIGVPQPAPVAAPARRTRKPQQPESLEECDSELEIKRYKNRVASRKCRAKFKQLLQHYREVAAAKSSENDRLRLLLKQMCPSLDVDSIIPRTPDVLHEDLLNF
Experiment: Zta-DNA interaction blockers, Epstein-Barr virus – biochemical, fluorescence polarization, single concentration, counter-screen for EBNA-1 inhibitor project, primary screen (AID 2234)
Conditions: ZTA-DNA binding, at 11 µM, stronger effect = higher value
In all, about 320,000 compounds went through this assay and about 480 (0.15%) were called active. This is one part of a sample in which actives are shown more often than they occur.
observable: inhibition (%)

• Cc1ccc(Cc2nnc(SCC(=O)Nc3ccc(C)cc3C)[nH]c2=O)cc1 = 2.99
• COc1ccc(C(=O)NCCn2nc(C)cc2C)cc1OC1CCN(C(C)=O)CC1 = -1.11
• O=C(O)c1cc(S(=O)(=O)N(Cc2ccccc2)c2ccccc2)ccc1Cl = -1.08
• O=C(O)C1CCCN1C1=NS(=O)(=O)c2ccccc21 (stereo not given) = 9.03
• CCn1c(C)nc2cc(C(=O)NNS(=O)(=O)c3ccc(C)cc3C)ccc21 = -11
• CCCCC(C(=O)NC(C)(C)C)N(Cc1ccccc1)C(=O)c1snc(C(N)=O)c1N (stereo not given) = -11.4
• CC(C)(C)C(=O)COC(=O)c1cc(S(=O)(=O)N2CCCCC2)ccc1N1CCOCC1 = -4.54
• COc1ccccc1-n1ccnc(SCC(=O)NC2CCCCC2)c1=O = -6.9
• COc1ccc(OC)c(S(=O)(=O)N2CCCC(C(=O)NCCc3ccccc3)C2)c1 (stereo not given) = -17.4
• CCC1=C(OC(=O)N(CC)CC)N2C(=O)OC(=NCC3CC3)[C@]2(C)[C@H]2C1=CC[C@H]1C(=O)N(CC(=O)OC)C(=O)[C@H]12 = 14
